# Test system: TK-10 renal
# Experiment Summary: NCI tumour cell line growth inhibition, 48 h
Measured TGI, listed per entry.

Some solved entries appear below for comparison.
Compound	TGI
O=C(CSCC(=O)N/N=C/c1cccc(OCc2ccccc2)c1)N/N=C/c1cccc(OCc2ccccc2)c1	> 100 µM
CCC(CC)C(=O)OC[n+]1cccc(-c2c(COC(=O)NC(C)C)c(COC(=O)NC(C)C)c3n2CCC3)c1	> 100 µM
c1ccc2cc(OCC3CO3)c(OCC3CO3)cc2c1 (stereo not drawn)	49.2 µM
C[C@@H]1CC[C@H]2C(COC/C=C/COCC3=C(C(F)(F)F)O[C@@H]4O[C@@]5(C)CC[C@H]6[C@H](C)CC[C@@H]3[C@@]46OO5)=C(C(F)(F)F)O[C@@H]3O[C@@]4(C)CC[C@@H]1[C@]32OO4	> 100 µM
CCOC(=O)c1cc(C2CCN(CC(C)CC)C2=S)c(C(=O)/C=C(/C)N)[nH]1 (stereo not drawn)	> 50 µM
NC(N)=N/N=C/c1cccc(Cl)c1Cl	24.4 µM

Query: Form field - read-out: TGI; system: TK-10 renal; submitted item: COc1cc2c(cc1OC)C1C(O)C(OC)C=C3CC[N+](C)(C2)C31 (stereo not drawn)
Reply: > 100 µM

Query: Entry CC(=O)O[C@H]1C(=O)[C@@]2(C)[C@H]([C@H](OC(=O)c3ccc([N+](=O)[O-])cc3)[C@]3(O)C[C@H](OC(=O)[C@H](O)[C@@H](NC(=O)c4ccccc4)c4ccccc4)C(C)=C1C3(C)C)[C@]1(OC(C)=O)CO[C@@H]1C[C@@H]2O , system TK-10 renal: what TGI was measured?
Reply: > 25 µM

Query: Hello, I am looking for reported TGI with TK-10 renal for CN(C)[C@@H]1C(=O)C(C(=O)NCNCCCC(=O)O)=C(O)[C@@]2(O)C(=O)C3=C(O)c4c(O)cccc4[C@@](C)(O)[C@H]3C[C@@H]12 . Could you help?
Reply: > 100 µM

Query: Give recorded TGI with TK-10 renal for the following compound: CC1=Nc2c([nH]c(=S)[nH]c2=O)NC(c2ccc(Cl)c(Cl)c2)C1 (stereo not drawn)
Reply: > 87.7 µM

Query: // fetch TK-10 renal TGI for CC(=O)c1c(O)ccc2c1CC(CC=O)O2 (stereo not drawn)
Reply: > 100 µM

Query: GET /values?readout=TGI&system=TK-10 renal&item= c1ccc2c[n+](CCCCCCCCCC[n+]3ccc4ccccc4c3)ccc2c1
Reply: > 10 µM

Query: Could you share what TGI was measured for O=C1SC(c2ccc(Cl)cc2)(c2ccc(Cl)cc2)c2ccccc21 , tested on TK-10 renal?
Reply: > 100 µM

Query: # get_value(readout= TGI, system= TK-10 renal) for CC1(C)OC(=O)C(C)(C)OC1=O
Reply: > 100 µM

Query: Lookup: TGI / TK-10 renal / NS(=O)(=O)c1ccc(NC(=O)CC(=O)Nc2ccc(S(N)(=O)=O)cc2)cc1
Reply: > 100 µM

Query: Requested read-out TGI, target or system TK-10 renal, entry CC(C)=CCC/C(C)=C/CC/C(=C/COP(=O)(OCc1ccc([N+](=O)[O-])o1)N(C)CCCCCl)CC=C(C)C (stereo not drawn)
Reply: 30.8 µM

Query: Tell me reported TGI for CS(=O)(=O)OCCN(CCOS(C)(=O)=O)c1ccc(C=Nc2ccc3oc(=O)ccc3c2)cc1 , tested with TK-10 renal.
Reply: 9.22 µM

Query: TGI of C/C(=N\NS(=O)(=O)c1ccc(C)cc1)C(CN(C)C)C(c1ccccc1)c1c(O)c2ccccc2oc1=O (stereo not drawn) on TK-10 renal?
Reply: > 100 µM
